System: Spermidine/spermine N^1-acetyl transferase (SSAT)
ASSAY_NAME: SSAT activity in treated L1210 cells
Type: cell-based, murine
RECORDED_ENDPOINT: SSAT activity, % of control

Field: example entries. Status: answers known.
Cc1c(O)c(=O)ccn1CCCNCCCCNCCCN: 275±6 % of control
Cc1c(O)c(=O)ccn1C [Compound L1, 1,2-Dimethyl-3-hydroxypyridin-4-one]: 108±58 % of control
CC(=O)NCCCNCCCCNCCCN: 180±11 % of control

Challenge: What does the record list as SSAT activity, % of control for CCCNCCCCNCCCN ?
Response given: 500 % of control
